What folding stability dG unfold was measured for each of the following?
test: folding stability dG unfold (combined trypsin and chymotrypsin); higher = more stable
Numbers only, in kcal/mol.

Known results for sequences:
| sequence record | reported measurement |
| --- | --- |
| SAGGSAGGMLPAEELADYLEKNPGIEIEDIEPPDPGYITVKIKFPRPDPNGEKHKVEVTIQFPVSAGGSAGG [r6_154_TrROS] | 1.4 |
| SAGMKYTFKILVKADSPEEAIETAKKLVEKWLKENFPELPEGVKIKEIKVEPLPDDYYLVTITVEFDPESAG [r5_320_TrMRF] | 5.49 |
| SAGGSAGGSANWKEIDGTLPWGLRVKVWVSPGNGQLMIEIKPVPPPPPPKISPEDADKANADSAGGSAGGSA [r18_236_TrROS] | 3.39 |

Fill in folding stability dG unfold for each of the 5 sequences listed.
1. SAGGSAGGSMKLTLESASPDPNKVTYTIKFPGGETLTEELPEEEIEKRSKELGWNIKLFGPTKSAGGSAGGS [r12_676_JUSTAS]
2. SAGKIKIEKENGEVKIEIEVPEEEIEKLKKLLEELKKKGFEVEKVEVKVEKKEDGTVKVTIKVKIKPKPSAG [r5_739_TrROS_Hall]
3. SAGGSAGGSPVVTVENVTRPSDYYTYTFKLPDGTVITLDAKSEEEAREKAKELGLENLNFKTEESAGGSAGG [r6_601_JUSTAS]
4. SAKVSHLEFSLPNSVVTPEDLLAALEKLGFPPSKIKKMEIVKVKDNSYVVKIYLENEDGSDSIITLHLPSAG [r14_30_TrMRF]
5. SAGGSAGGSAGGSTRDFLVKDPSNGQWYKVTATTDPAGAVTITFPETGEVVPLEGLVVSPSAGGSAGGSAGG [r11_301_JUSTAS]

-0.0928
2.99
3.8
1.78
1.43
